Just for reference, patent US20250236614A1 is where these values come from.

System: hDGKzeta(1-928)-N-His (DGKZ) (Homo sapiens) | Read-out: pIC50
Sequence (Q13574 whole entry): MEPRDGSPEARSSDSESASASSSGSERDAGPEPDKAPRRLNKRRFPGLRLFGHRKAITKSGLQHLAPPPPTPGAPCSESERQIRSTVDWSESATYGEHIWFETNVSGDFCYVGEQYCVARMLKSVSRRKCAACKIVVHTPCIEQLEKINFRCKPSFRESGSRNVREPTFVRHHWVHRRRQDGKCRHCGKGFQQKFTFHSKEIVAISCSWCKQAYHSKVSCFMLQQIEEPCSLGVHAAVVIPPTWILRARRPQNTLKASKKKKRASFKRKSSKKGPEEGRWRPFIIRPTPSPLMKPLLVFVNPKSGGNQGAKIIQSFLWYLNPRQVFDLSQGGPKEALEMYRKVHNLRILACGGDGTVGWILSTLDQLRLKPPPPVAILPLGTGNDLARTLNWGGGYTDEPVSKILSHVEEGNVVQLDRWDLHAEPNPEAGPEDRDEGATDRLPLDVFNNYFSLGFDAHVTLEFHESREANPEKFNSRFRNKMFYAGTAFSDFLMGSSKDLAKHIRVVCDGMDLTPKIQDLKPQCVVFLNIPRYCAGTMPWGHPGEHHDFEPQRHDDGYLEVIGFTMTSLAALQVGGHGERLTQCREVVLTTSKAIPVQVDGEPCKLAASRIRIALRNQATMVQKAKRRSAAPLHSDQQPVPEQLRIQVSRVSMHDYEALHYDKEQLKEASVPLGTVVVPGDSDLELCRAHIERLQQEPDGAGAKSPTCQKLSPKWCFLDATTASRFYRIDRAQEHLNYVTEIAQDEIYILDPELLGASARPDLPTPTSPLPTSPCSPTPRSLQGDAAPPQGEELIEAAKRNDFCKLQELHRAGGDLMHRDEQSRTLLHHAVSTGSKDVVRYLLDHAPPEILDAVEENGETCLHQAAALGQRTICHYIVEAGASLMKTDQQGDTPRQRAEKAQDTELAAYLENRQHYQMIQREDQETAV
Just the number, please; pIC50 means minus log10 of the concentration in mol/L.

Please review the entries below; each comes with its answer.
{"columns": ["Compound", "Value observed"],
 "data": [
  ["COc1ccc(-c2ccc(CN3C(=O)[C@H](N)CC(F)(F)c4cc(F)c(-c5nnc(C(C)(C)C#N)o5)cc43)cc2)nc1 (single isomer, unassigned)", 5.24],
  ["CC(C)(c1nnc(-c2cc3c(cc2F)C(F)(F)C[C@@H](N)C(=O)N3Cc2ccc(-n3cnc(C(F)(F)F)n3)cc2)o1)S(C)(=O)=O (single isomer, unassigned)", 4.81],
  ["CC(F)(F)c1ccc(-c2ccc(CN3C(=O)[C@H](N)CC(F)(F)c4cc(F)c(-c5nnc(C(C)(C)C#N)o5)cc43)cc2)nc1 (single isomer, unassigned)", 5.55],
  ["CC(C)(C)c1nnc(-c2cc3c(cc2F)C(F)(F)CC(N)C(=O)N3Cc2ccc(OC(F)(F)F)cc2)o1 (centres unmarked)", 4.70],
  ["CC(C)(c1nnc(-c2cc3c(cc2F)C(F)(F)CC(N)C(=O)N3Cc2ccc(Oc3ccccc3)cc2)o1)S(C)(=O)=O (racemic)", 5.62]
]}

## Input So what pIC50 did CC(C)(C#N)c1nnc(-c2cc3c(cc2F)C(F)(F)C[C@@H](N)C(=O)N3Cc2ccc(-c3ccc(OC(F)F)cn3)cc2)o1 (single isomer, unassigned) get with hDGKzeta(1-928)-N-His (DGKZ) (Homo sapiens)?
## Output 5.09

## Input So what pIC50 did COC(F)(c1nnc(-c2cc3c(cc2F)C(F)(F)C[C@H](N)C(=O)N3Cc2ccc(OC(F)(F)F)cc2)o1)C(F)(F)F (single isomer, unassigned) get with hDGKzeta(1-928)-N-His (DGKZ) (Homo sapiens)?
## Output 5.05

## Input So what pIC50 did CC(C)(C#N)c1nnc(-c2cc3c(cc2F)C(F)(F)CC(N)C(=O)N3Cc2ccc(-n3cc(C(F)(F)F)cn3)cc2)o1 (racemic) get with hDGKzeta(1-928)-N-His (DGKZ) (Homo sapiens)?
## Output 5.77

## Input So what pIC50 did COc1ccc(-c2ccc(CN3C(=O)[C@H](N)CC(F)(F)c4cc(F)c(-c5nnc(C(C)(C)C#N)o5)cc43)cc2)cc1 (single isomer, unassigned) get with hDGKzeta(1-928)-N-His (DGKZ) (Homo sapiens)?
## Output 5.63

## Input So what pIC50 did COC(=O)N1CC2CC(c3nnc(-c4cc5c(cc4F)C(F)(F)CC(N)C(=O)N5Cc4ccc(-c5noc(C(F)(F)F)n5)cc4)o3)(C2)C1 (single isomer, unassigned) get with hDGKzeta(1-928)-N-His (DGKZ) (Homo sapiens)?
## Output 5.65

## Input So what pIC50 did CC(C)(C#N)c1nnc(-c2cc3c(cc2F)C(F)(F)C[C@@H](N)C(=O)N3Cc2ccc(-c3cc(C(F)(F)F)ccn3)cc2)o1 (single isomer, unassigned) get with hDGKzeta(1-928)-N-His (DGKZ) (Homo sapiens)?
## Output 5.74
